- system.tested: T1, recombinant purified FRα (ECL assay calibrator) (human, UniProt P15328 25-234)
- T1 construct: Calibrator of the ECL sandwich assays; also called FRα calibrator; FRα standard
- test.description: ECL sandwich, FRα calibrator; capture 1D2.G8.G10; binder = detection Ab
measure: Specific signal at 500 pg/mL

| binder | reported |
| --- | --- |
| Monoclonal antibody 1A8.G11.E7 (antibody, mouse IgG1, V domains shown, Murine IgG1 kappa from hybridoma; also called ATCC PTA-123100) VH: ESGPGLVAPSQSLSITCTVSGFSLTSYGVSWVRQPPGKGLEWLGVIWGDGSTNYHSTLISRLSISKDNSKSQVFLKLNSLQTDDTATYYCAKPHPAATGAMDYWGQGTSVTVSS VL: TQTTSSLSASLGDRVTISCRASQDISNHLNWYQQKPDGTVKLLIYYTSRLHSGVPSRFSGSGSGTDYSLTISNLEQEDIATYFCQQGNTLWTFGGGTKLEIK | 64 |
